system: L02; test: Cytotoxicity against human L02 cells assessed as reduction in cell viability measured upto 72 hrs by MTT assay; format: cell-based; conditions: l02, 72 h
endpointLabel: Activity

Example entries begin here.
COc1ccc(-c2ccccc2C#N)cc1C12CC3CC(CC(C3)C1)C2 = Non-Toxic
COc1ccc(-c2c(F)cc(F)c(OC)c2F)cc1C12CC3CC(CC(C3)C1)C2 = Non-Toxic
COc1ccc(-c2cccc3ccccc23)cc1C12CC3CC(CC(C3)C1)C2 = Non-Toxic
COc1ccc(C2=Cc3ccccc3C2)cc1C12CC3CC(CC(C3)C1)C2 = Toxic

Alright, here's another compound for you.
COc1ccc(-c2ccccc2C)cc1C12CC3CC(CC(C3)C1)C2 yielded Activity of Non-Toxic

* * *

system: L02; assay: Cytotoxicity against human L02 cells assessed as reduction in cell viability measured upto 72 hrs by MTT assay; type: cell-based; conditions: l02, 72 h
endpointLabel: Activity

The following compounds have reported results that may help.
COc1ccc(-c2ccccc2Cl)cc1C12CC3CC(CC(C3)C1)C2 = Toxic
COc1ccc(-c2ccc(Cl)c(C(F)(F)F)c2)cc1C12CC3CC(CC(C3)C1)C2 = Non-Toxic
COc1ccc(-c2ccc(C(F)(F)F)cc2)cc1C12CC3CC(CC(C3)C1)C2 = Non-Toxic
COc1ccc(-c2ccccc2)cc1C12CC3CC(CC(C3)C1)C2 = Non-Toxic

Proceeding to the next compound to report its Activity.
The recorded Activity for entry COc1ccc(-c2cccc(O)c2)cc1C12CC3CC(CC(C3)C1)C2 equals Non-Toxic
